This collection of values is drawn from patent US20260166039A1.

Reported IC50 is given for each of the following compounds.
target.or.test.system: Wee1 kinase domain (Homo sapiens, UniProt P30291)
Construct: Wee1 kinase domain was purchased from Carna (catalog #05-177); purchased Carna 05-177
Sequence (P30291 299-569 limits assumed): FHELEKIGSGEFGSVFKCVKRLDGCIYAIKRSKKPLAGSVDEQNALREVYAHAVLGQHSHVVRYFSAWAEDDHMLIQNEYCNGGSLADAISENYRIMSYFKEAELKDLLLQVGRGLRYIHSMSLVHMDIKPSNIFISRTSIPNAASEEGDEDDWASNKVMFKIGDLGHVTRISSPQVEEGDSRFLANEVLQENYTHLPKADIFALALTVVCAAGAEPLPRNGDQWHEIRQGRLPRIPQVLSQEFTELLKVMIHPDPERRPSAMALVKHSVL
experiment.notes: Wee1 Kinase Biochemical Assay (ADP-Glo)
experimental.context: Wee1 kinase domain, 15 uM ATP, ADP-Glo

>  <compound>
CNCc1cccc(N2c3nc(Nc4ccc([C@H]5CCC(=O)N5C)cc4)ncc3[C@]3(C)COC(C)(C)C[C@H]23)n1 (single isomer, unassigned)

>  <IC50>
≥ 1000 nM

$$$$
>  <compound>
CN=S1(=O)CCN(c2ccc(Nc3ncc4c(n3)N(c3cccc(CNC)n3)[C@@H]3CC(C)(C)OC[C@]43C)cc2)CC1 (single isomer, unassigned)

>  <IC50>
< 10 nM

$$$$
>  <compound>
CNCc1cccc(N2c3nc(Nc4ccc(N5C[C@@H]6C[C@H]5CO6)cc4)ncc3[C@@]3(C)COC(C)(C)C[C@@H]23)n1 (single isomer, unassigned)

>  <IC50>
< 10 nM

$$$$
>  <compound>
Cc1cc(Nc2ncc3c(n2)N(c2cccc(N=S(C)(C)=O)n2)[C@H]2CC(C)(C)OC[C@@]32C)ccc1[C@@H]1COCCN1 (single isomer, unassigned)

>  <IC50>
10 to 100 nM

$$$$
>  <compound>
Cc1cc(Nc2ncc3c(n2)N(c2cccc(N=S(C)(C)=O)n2)[C@H]2CC(C)(C)OC[C@@]32C)ccc1N1CCN(C)CC1 (single isomer, unassigned)

>  <IC50>
10 to 100 nM

$$$$
>  <compound>
CN1CCN(c2ccc(Nc3ncc4c(n3)N(c3cccc(N=S(C)(C)=O)n3)[C@H]3CC(C)(C)OC[C@@]43C)cc2)CC1

>  <IC50>
100 to 1000 nM

$$$$
>  <compound>
CN1C[C@@H]2C[C@H]1CN2c1ccc(Nc2ncc3c(n2)N(c2cccc(N=S(C)(C)=O)n2)[C@H]2CC(C)(C)OC[C@@]32C)cc1 (single isomer, unassigned)

>  <IC50>
100 to 1000 nM

$$$$
>  <compound>
CNCc1cccc(N2c3nc(Nc4ccc([C@@H]5CCC(=O)N5C)cc4)ncc3[C@]3(C)COC(C)(C)C[C@H]23)n1 (single isomer, unassigned)

>  <IC50>
≥ 1000 nM

$$$$
>  <compound>
C[C@H]1COC(=O)N1c1cccc(N2c3nc(Nc4ccc(O[C@@H]5CCN(C)C5)nc4)ncc3[C@]3(C)COC(C)(C)C[C@H]23)n1 (single isomer, unassigned)

>  <IC50>
100 to 1000 nM

$$$$
>  <compound>
CNCc1cccc(N2c3nc(Nc4ccc(C(C)(C)C(=O)N(C)C)cc4)ncc3[C@@]3(C)COC(C)(C)C[C@@H]23)n1 (single isomer, unassigned)

>  <IC50>
< 10 nM

$$$$
>  <compound>
Cc1cc(Nc2ncc3c(n2)N(c2cccc(N4C(=O)OC[C@@H]4C)n2)[C@@H]2CC(C)(C)OC[C@]32C)ccc1O[C@H]1CCN(C)C1 (single isomer, unassigned)

>  <IC50>
< 10 nM

$$$$

* * *

target.or.test.system: Wee1 kinase domain (Homo sapiens)
Construct: Wee1 kinase domain was purchased from Carna (catalog #05-177); purchased Carna 05-177
experiment.notes: Wee1 Kinase Biochemical Assay (ADP-Glo)
experimental.context: class symbols; 1 nM Wee1 enzyme, 15 uM ATP, 4 hours at 25° C.
metric: IC50

>  <compound>
CNCc1cccc(N2c3nc(Nc4ccc(N5[C@@H]6COC[C@H]5C6)cc4)ncc3[C@@]3(C)COC(C)(C)C[C@@H]23)n1 (single isomer, unassigned)

>  <result>
< 10 nM

$$$$
>  <compound>
CC1(C)C[C@@H]2N(c3cccc([C@@H]4CNCCO4)n3)c3nc(Nc4ccc(N5CCOCC5)cc4)ncc3[C@]2(C)CO1

>  <result>
100 to 1000 nM

$$$$
>  <compound>
CN1C[C@@H]2C[C@H]1CN2c1ccc(Nc2ncc3c(n2)N(c2cccc(C(C)(C)O)n2)[C@@H]2CC(C)(C)OC[C@]32C)cc1F (single isomer, unassigned)

>  <result>
< 10 nM

$$$$
>  <compound>
CN1CC2CC1CN2c1ccc(Nc2ncc3c(n2)N(c2cccc(N=S(C)(C)=O)c2)C2CC(C)(C)OCC32C)cc1 (single isomer, unassigned) [Example 711]

>  <result>
100 to 1000 nM

$$$$
>  <compound>
CC1(C)C[C@H]2N(c3ccc4c(n3)[C@@](C)(N)CC4)c3nc(Nc4ccc(N5CCOCC5)cc4)ncc3[C@@]2(C)CO1 (single isomer, unassigned)

>  <result>
< 10 nM

$$$$
>  <compound>
CNCc1cccc(N2c3nc(Nc4ccc(C(C)(C)C(=O)O)cc4)ncc3[C@]3(C)COC(C)(C)C[C@H]23)n1 (single isomer, unassigned)

>  <result>
≥ 1000 nM

$$$$
>  <compound>
C[C@H]1CCC(=O)N1c1cccc(N2c3nc(Nc4ccc(N5C[C@@H]6C[C@H]5CN6C)cc4)ncc3[C@]3(C)COC(C)(C)C[C@H]23)n1

>  <result>
10 to 100 nM

$$$$
>  <compound>
CN1CCC(n2cc(Nc3ncc4c(n3)N(c3cccc(N=S(C)(C)=O)c3)[C@@H]3CC(C)(C)OC[C@]43C)cn2)CC1

>  <result>
< 10 nM

$$$$
>  <compound>
CC1(C)C[C@H]2N(c3cccc(N=S4(=O)CCCC4)n3)c3nc(NC(=O)C4CC4)ncc3[C@@]2(C)CO1 (single isomer, unassigned)

>  <result>
< 10 nM

$$$$
>  <compound>
Cc1cc(Nc2ncc3c(n2)N(c2cccc(N4CCOC4=O)n2)[C@H]2CC(C)(C)OC[C@@]32C)ccc1C1CCN(C)CC1 (single isomer, unassigned)

>  <result>
10 to 100 nM

$$$$
>  <compound>
CN(C)Cc1cccc(N2c3nc(Nc4ccc(C(C)(C)C(=O)O)cc4)ncc3[C@@]3(C)COC(C)(C)C[C@@H]23)n1

>  <result>
< 10 nM

$$$$
>  <compound>
CN1CC(c2ccc(Nc3ncc4c(n3)N(c3cccc(N5CCOC5=O)n3)[C@H]3CC(C)(C)OC[C@@]43C)cc2)C1

>  <result>
100 to 1000 nM

$$$$
>  <compound>
CC1(C)C[C@H]2N(c3cccc(N=S(C)(C)=O)n3)c3nc(Nc4ccc(N5CCN6CCC5C6)cc4)ncc3[C@@]2(C)CO1 (single isomer, unassigned)

>  <result>
< 10 nM

$$$$
>  <compound>
CN[C@H](C)c1cccc(N2c3nc(Nc4ccc(N5CCOCC5)cc4)ncc3[C@]3(C)COC(C)(C)C[C@H]23)n1 (single isomer, unassigned)

>  <result>
100 to 1000 nM

$$$$
>  <compound>
CN[C@H](C)c1cc(C)nc(N2c3nc(Nc4ccc(N5CCOCC5)cc4)ncc3[C@@]3(C)COC(C)(C)C[C@@H]23)c1 (single isomer, unassigned)

>  <result>
< 10 nM

$$$$
>  <compound>
CC1(C)C[C@H]2N(c3cccc([C@@H]4CNCCO4)n3)c3nc(Nc4ccc(N5CCOCC5)cc4)ncc3[C@@]2(C)CO1

>  <result>
10 to 100 nM

$$$$
>  <compound>
CC[C@@]1(O)CCc2ccc(N3c4nc(Nc5ccc(N6C[C@H]7C[C@@H]6CN7C)cc5)ncc4[C@@]4(C)COC(C)(C)C[C@@H]34)nc21

>  <result>
< 10 nM

$$$$
>  <compound>
C[C@@H]1COC(=O)N1c1cccc(N2c3nc(Nc4ccc(N5CCN(C)CC5)cc4)ncc3[C@]3(C)COC(C)(C)C[C@H]23)n1 (single isomer, unassigned)

>  <result>
10 to 100 nM

$$$$
>  <compound>
Cn1cc(Nc2ncc3c(n2)N(c2cccc(N=S(C)(C)=O)n2)[C@@H]2CC(C)(C)OC[C@]32C)cn1 (single isomer, unassigned)

>  <result>
< 10 nM

$$$$
>  <compound>
CC1(C)C[C@H]2N(c3cccc(N=S(C)(C)=O)n3)c3nc(Nc4ccc(N5C[C@@H]6C[C@H]5CO6)cc4)ncc3[C@@]2(C)CO1 (single isomer, unassigned)

>  <result>
< 10 nM

$$$$
>  <compound>
Cn1cc(Nc2ncc3c(n2)N(c2cccc(N=S(C)(C)=O)n2)[C@@H]2CC(C)(C)OC[C@]32C)ccc1=O (single isomer, unassigned)

>  <result>
< 10 nM

$$$$
>  <compound>
CC1(C)C[C@H]2N(c3cccc(N4CCCC4=O)n3)c3nc(Nc4ccc(O[C@@H]5CCNC5)cc4)ncc3[C@@]2(C)CO1

>  <result>
< 10 nM

$$$$

* * *

target.or.test.system: Wee1 kinase domain (Homo sapiens)
Construct: Wee1 kinase domain was purchased from Carna (catalog #05-177); purchased Carna 05-177
experiment.notes: Wee1 Kinase Biochemical Assay (ADP-Glo)
experimental.context: class symbols; 1 nM Wee1 enzyme, 15 uM ATP, 4 hours at 25° C.
pIC50: −log10 of the molar value.

>  <compound>
CC1(C)C[C@H]2N(c3cccc(N=S(C)(C)=O)n3)c3nc(Nc4ccc(N5CC6(CNC6)C5)cc4)ncc3[C@@]2(C)CO1 (single isomer, unassigned)

>  <pIC50>
> 8.00

$$$$
>  <compound>
CC1(C)C[C@H]2N(c3ccc4c(n3)[C@](C)(N)CC4)c3nc(Nc4ccc(N5CCOCC5)cc4)ncc3[C@@]2(C)CO1 (single isomer, unassigned)

>  <pIC50>
> 8.00

$$$$
>  <compound>
CN1C[C@@H]2CN(c3ccc(Nc4ncc5c(n4)N(c4cccc(N6CCCC6=O)n4)[C@H]4CC(C)(C)OC[C@@]54C)cc3)C[C@@H]2C1

>  <pIC50>
7.00 to 8.00

$$$$
>  <compound>
CN[C@H]1CCc2ccc(N3c4nc(Nc5ccc(N6CCOCC6)cc5)ncc4C4(C)COC(C)(C)CC34)nc21 (stereo in doubt)

>  <pIC50>
> 8.00

$$$$
>  <compound>
CNCc1cccc(N2c3nc(Nc4ccc(N5CCN(C)C(=O)C5)cc4)ncc3[C@]3(C)COC(C)(C)C[C@H]23)n1 (single isomer, unassigned)

>  <pIC50>
7.00 to 8.00

$$$$
>  <compound>
CN1C[C@H]2C[C@@H]1CN2c1ccc(Nc2ncc3c(n2)N(c2cccc(N4C(=O)CCC4(C)C)n2)[C@@H]2CC(C)(C)OC[C@]32C)cc1

>  <pIC50>
> 8.00

$$$$
>  <compound>
CN1C[C@@H]2CN(c3ccc(Nc4ncc5c(n4)N(c4cccc(N6CCOC6=O)n4)[C@H]4CC(C)(C)OC[C@@]54C)cc3)C[C@@H]2C1

>  <pIC50>
6.00 to 7.00

$$$$
>  <compound>
CC1(C)C[C@H]2N(c3cccc(N4CCCC4=O)n3)c3nc(Nc4ccc([C@H]5CCNC5)cc4)ncc3[C@@]2(C)CO1

>  <pIC50>
> 8.00

$$$$
>  <compound>
CC1(C)C[C@H]2N(c3cccc(N4CCOC4=O)n3)c3nc(Nc4ccc(O[C@H]5CCNC5)cc4)ncc3[C@@]2(C)CO1

>  <pIC50>
> 8.00

$$$$
>  <compound>
CC1(C)C[C@H]2N(c3cccc(N=S(C)(C)=O)n3)c3nc(Nc4ccc(N5CCOCC5)nc4)ncc3[C@@]2(C)CO1 (single isomer, unassigned)

>  <pIC50>
> 8.00

$$$$
>  <compound>
CN1C[C@@H]2C[C@H]1CN2c1ccc(Nc2ncc3c(n2)N(c2cccc(C(C)(C)O)n2)[C@H]2CC(C)(C)OC[C@@]32C)cc1Cl (single isomer, unassigned)

>  <pIC50>
7.00 to 8.00

$$$$
